# Tested on: NF-κB
# Test details: NF-κB assay: THP1-NF-κB-LUC cells, LPS-stimulated secreted luciferase
# Format: cell-based
# Condition label: THP1-NF-κB-LUC cells; compounds 2 hours before LPS (10 ng/mL) for 18 hours; secreted luciferase; read-out: IC50 (NF-κB assay)
pIC50: −log10 of the molar value.
# pIC50 listing for each entry below

Example compounds with recorded pIC50:
Compound	Assayed target	pIC50
CS(=O)(=O)c1cc2c(c(S(=O)(=O)Nc3cccc(Cl)c3)c1)OCC(=O)N2	NF-κB	> 7.00
CCc1cccc(NS(=O)(=O)c2cc(Br)cc3c2OCC(=O)N3)c1	NF-κB	> 7.00
CC1Oc2c(cc(Br)cc2S(=O)(=O)NC2CCC(O)CC2)NC1=O (stereo not shown)	NF-κB	< 5.00
CC(C)NS(=O)(=O)c1cc(Cl)cc2c1OC(C)C(=O)N2 (stereo not shown)	NF-κB	6.00 to 7.00
CC1Oc2cc(S(=O)(=O)N3CCOCC3)c(Br)cc2NC1=O (stereo not shown)	NF-κB	< 5.00
COc1ccc2[nH]cc(S(=O)(=O)c3ccc(OC)c(OC)c3)c(=O)c2c1	NF-κB	< 5.00
CCc1cccc(NS(=O)(=O)c2cc3c(cc2Br)NC(=O)C(C)O3)c1 (stereo not shown)	NF-κB	6.00 to 7.00
Cc1cccc(NS(=O)(=O)c2cc3c(cc2C)N(C)CCO3)c1	NF-κB	< 5.00

In: Name the reported pIC50 value associated with the compound `CC(=O)c1ccc(NS(=O)(=O)c2cc3c(cc2C)N(C(C)=O)CCO3)cc1`
Out: < 5.00

In: Moving on to `CCS(=O)(=O)c1cc2c(c(S(=O)(=O)Nc3ccccc3)c1)OCC(=O)N2`
Out: > 7.00

In: Moving on to `Cc1cc2c(cc1S(=O)(=O)Nc1ccc(F)c(F)c1)OCC(=O)N2`
Out: 6.00 to 7.00

---

# System: NF-κB
# Test details: NF-κB assay: THP1-NF-κB-LUC cells, LPS-stimulated secreted luciferase
# Format: cell-based
# Condition label: THP1-NF-κB-LUC cells; compounds 2 hours before LPS (10 ng/mL) for 18 hours; secreted luciferase; read-out: IC50 (NF-κB assay)
pIC50: −log10 of the molar value.
Attribute measured: pIC50

Example compounds with recorded pIC50:
Compound	pIC50
CC(=O)N1CCOc2cc(S(=O)(=O)Nc3ccc(C(C)C)cc3)c(C)cc21	5.00 to 6.00
CC1Oc2c(cc(Cl)cc2S(=O)(=O)Nc2ccc(Cl)cc2)NC1=O (stereo not drawn)	> 7.00
Cc1ccc(NS(=O)(=O)c2cc3c(cc2C)NC(=O)CO3)cc1Cl	> 7.00
CS(=O)(=O)c1cc2c(c(S(=O)(=O)Nc3ccc(OC(F)(F)F)cc3)c1)OCC(=O)N2	> 7.00
COc1ccc(Cl)cc1NS(=O)(=O)c1cc2c(cc1C)NC(=O)CO2	< 5.00
CC1Oc2cc(S(=O)(=O)NCCc3ccc(OC(F)(F)F)cc3)c(Br)cc2NC1=O (stereo not drawn)	< 5.00
CCC1Oc2cc(S(=O)(=O)NCc3ccc(C(F)(F)F)cc3)c(Br)cc2NC1=O (stereo not drawn)	< 5.00
CC1Oc2cc(S(=O)(=O)Nc3ccc(F)cc3Cl)c(Cl)cc2NC1=O (stereo not drawn)	6.00 to 7.00

Now take the following compound into account.
In: Entry `Cc1ccc(Cl)cc1NS(=O)(=O)c1cc2c(cc1Cl)NC(=O)CO2` , system NF-κB: what pIC50 was measured?
Out: < 5.00
